These measurements were taken from PubChem BioAssay AID624296.

Experiment: A quantitative high throughput screen for small molecules that induce DNA re-replication in MCF 10a normal breast cells. Also: nearly all actives have a fitted effect of over 50% in size.
Condition label: MCF 10A DNA re-replication, Hoechst nuclear intensity, 48 h; series mostly up to 46.1 µM
The campaign covered roughly 350,000 compounds. About 9,900 (2.8%) were called active. Inconclusive results (about 15%) are left out. Calls follow the shape of the dose curve; as a rule, active = well fitted activation curve with a large enough effect; inconclusive = small, poorly fitted or top-dose-only effect; inactive = no such curve, though single readings can be large or run the other way. The list comes from a sample in which actives are over-represented; it also holds close analogues and randomly drawn compounds.
Write down the outcome that applies. Available outcomes: active, inactive

So what was the verdict on COc1ccc(C(=O)OC(C)C(=O)NC2CCCC2)cc1S(=O)(=O)N1CCOCC1 (stereo not given) in this test?
inactive

So what was the verdict on "COc1ccc(-n2c(=S)[nH]c3sc4c(c3c2=O)CCc2ccccc2-4)cc1" in this test?
inactive

So what was the verdict on "COc1ccc(/C=C2\N=C3CCCN3C2=O)cc1" in this test?
inactive

So what was the verdict on "COC(=O)[C@]1(Cc2ccccc2)N[C@H](CN(C)S(=O)(=O)c2ccc(OC(F)(F)F)cc2)[C@@H]2C(=O)N(C)C(=O)[C@@H]21" in this test?
inactive

So what was the verdict on "COc1ccc(/C=C2/CCCc3ccccc3C2=O)cc1" in this test?
active

So what was the verdict on "CN(C(=O)c1cccc(NC(=O)C2CCN(C(=O)OC(C)(C)C)CC2)c1)C1CCC1" in this test?
inactive

So what was the verdict on "O=C(CNCCC1=CCCCC1)Nc1ccccc1N1CCCCCC1" in this test?
active

So what was the verdict on "CC(C)c1ccc(C=NNc2ccc([N+](=O)[O-])cn2)cc1" in this test?
active

So what was the verdict on "O=C(CN1C(=O)NC2(CCCCCC2)C1=O)Nc1ccc([N+](=O)[O-])cc1" in this test?
inactive

So what was the verdict on CCOc1ccc(S(=O)(=O)NCC2CCCO2)cc1 (stereo not given) in this test?
inactive

###

Experiment: A quantitative high throughput screen for small molecules that induce DNA re-replication in MCF 10a normal breast cells. Also: nearly all actives have a fitted effect of over 50% in size.
Condition label: MCF 10A DNA re-replication, Hoechst nuclear intensity, 48 h; series mostly up to 46.1 µM
Screen size: about 350,000 compounds; about 9,900 (2.8%) were called active. About 15% were inconclusive and are not listed. Calls come from the whole dose curve; as a rule, active = well fitted activation curve with a large enough effect; inconclusive = small, poorly fitted or top-dose-only effect; inactive = no such curve, though single readings can be large or run the other way. The full list was thinned out, with actives kept by preference.
Write down the outcome that applies. Available outcomes: active, inactive

So what was the verdict on "CN(c1ccccc1)S(=O)(=O)c1cc(C(=O)OCC(=O)N2CCN(C(=O)c3ccco3)CC2)ccc1Cl" in this test?
inactive

So what was the verdict on "COc1ccccc1N1CCN(CC(=O)Nc2ccnn2C2CCCC2)CC1" in this test?
inactive

So what was the verdict on "CN(c1ccccc1)S(=O)(=O)c1ccc(C(=O)N2CCN(c3ccccc3Cl)CC2)cc1" in this test?
inactive

So what was the verdict on "O=C(CCn1c(=O)[nH]c2ccccc2c1=O)NCCCN1CCN(c2cccc(Cl)c2)CC1" in this test?
inactive

So what was the verdict on "O=C(CSC(=S)N1CCOCC1)c1cc(Br)cc(Br)c1O" in this test?
inactive

So what was the verdict on O=C1Nc2c(Br)cc(Br)cc2C1(O)N1CCOCC1 (stereo unspecified) in this test?
active

So what was the verdict on "O=C1c2ccccc2[C@@H]2C[C@@H](O)[C@H](Nc3ccccc3Cl)CCN12" in this test?
inactive

So what was the verdict on "O=C(NCCN1CCOCC1)c1ccc2c(c1)ncn2C1CCCC1" in this test?
inactive

So what was the verdict on COc1ccc(C(=O)C(C)OC(=O)c2cccc(S(=O)(=O)Nc3c(C)n(C)n(-c4ccccc4)c3=O)c2)cc1 (stereo unspecified) in this test?
inactive

So what was the verdict on "O=C(OCc1ccccc1)c1ccc(O)cc1" in this test?
inactive

So what was the verdict on "C/C(=N\NC(=S)Nc1ccc(C)cc1)c1cc2ccccc2o1" in this test?
active

So what was the verdict on "CN(c1ccccc1)S(=O)(=O)c1cc(C(=O)N2CCN(c3ncccn3)CC2)ccc1Cl" in this test?
active

So what was the verdict on "O=C(c1cc2cc(Br)cc(Br)c2oc1=O)N1CCOCC1" in this test?
inactive

So what was the verdict on FC(F)(F)c1ccc(-c2cccc3c2C2CC3CCN2Cc2ccccc2)cc1 (stereo unspecified) in this test?
inactive

So what was the verdict on "CCn1c(=S)[nH]c2sc3c(c2c1=O)CCCCC3" in this test?
inactive

So what was the verdict on "O=C(OCc1ccc(-c2ccccc2)cc1)c1cccc(O)c1" in this test?
active

So what was the verdict on "Cc1ccc(NC(=O)c2cc3ccccc3o2)cc1" in this test?
inactive

So what was the verdict on "COc1ccc2sc(-c3ccc(S(C)(=O)=O)cc3)c(-c3ccc(C(N)=O)cc3)c2c1" in this test?
active

So what was the verdict on "O=C(NCCN1CCOCC1)c1cc(-c2cccs2)nc2ccccc12" in this test?
inactive

So what was the verdict on "CC(=O)Nc1ccc(SC[C@H](Cc2ccccc2)N2CC[C@@H](C)CCC2=O)cc1" in this test?
inactive

So what was the verdict on "CN(C)C(=O)CCc1ccc2c3c([nH]c2c1)[C@]1(CCC2CCCC2)[C@@H](C(=O)N2CCOCC2)C[C@H](CC(=O)NCc2ccco2)C(=O)N1CC3" in this test?
inactive

###

Experiment: A quantitative high throughput screen for small molecules that induce DNA re-replication in MCF 10a normal breast cells. Also: nearly all actives have a fitted effect of over 50% in size.
Condition label: MCF 10A DNA re-replication, Hoechst nuclear intensity, 48 h; series mostly up to 46.1 µM
Among all 350,000 compounds or so, about 9,900 (2.8%) were called active. Another 15% or so got no clear call; they are omitted. Calls come from the whole dose curve; as a rule, active = well fitted activation curve with a large enough effect; inconclusive = small, poorly fitted or top-dose-only effect; inactive = no such curve, though single readings can be large or run the other way. This excerpt belongs to a sample that is enriched for actives.
Write down the outcome that applies. Available outcomes: 1.0 for active, 0.0 for inactive

So what was the verdict on CCCOc1ccc(C(=O)C(CCC(CNCC)C(=O)c2ccc(OCCC)cc2)CNCC)cc1 (stereo unspecified) in this test?
1.0

So what was the verdict on "COc1ccccc1-c1nnc(-c2ccc(F)cc2)o1" in this test?
0.0

So what was the verdict on "CCc1ccccc1NC(=O)CN(C)C(=O)c1cc(C2CC2)nn1-c1ccccc1" in this test?
0.0

So what was the verdict on CCCOc1ccc(C(=O)CCC(=O)OC(C)C(=O)Nc2ccc(NC(C)=O)cc2)cc1 (stereo unspecified) in this test?
0.0

So what was the verdict on "O=C(CSc1nnc(Nc2ccccc2F)s1)NC1CCCC1" in this test?
0.0

So what was the verdict on "Cn1c(N)cc(=O)n(C)c1=S" in this test?
0.0

So what was the verdict on "O=[N+]([O-])c1ccc(N=NNc2ccc([N+](=O)[O-])cc2)cc1" in this test?
0.0

So what was the verdict on "Cc1cc(C(=O)N/N=C/c2ccccc2[N+](=O)[O-])c(C)o1" in this test?
0.0

So what was the verdict on "O=C(Nc1ccnc(-c2ccncc2)n1)c1cccs1" in this test?
1.0

So what was the verdict on "COc1ccccc1N(CC(=O)Nc1c(C)n(C)n(-c2ccccc2)c1=O)S(=O)(=O)c1ccccc1" in this test?
0.0

So what was the verdict on CCC(=O)N1CCc2cc(Br)c(S(=O)(=O)NCCN3CCCCC3CC)cc21 (stereo unspecified) in this test?
0.0

###

Experiment: A quantitative high throughput screen for small molecules that induce DNA re-replication in MCF 10a normal breast cells. Also: nearly all actives have a fitted effect of over 50% in size.
Condition label: MCF 10A DNA re-replication, Hoechst nuclear intensity, 48 h; series mostly up to 46.1 µM
The campaign covered roughly 350,000 compounds. About 9,900 (2.8%) were called active. Not shown: some 15% with an inconclusive outcome. Calls follow the shape of the dose curve; as a rule, active = well fitted activation curve with a large enough effect; inconclusive = small, poorly fitted or top-dose-only effect; inactive = no such curve, though single readings can be large or run the other way. This excerpt belongs to a sample that is enriched for actives.
Write down the outcome that applies. Available outcomes: active, inactive

So what was the verdict on CC1(C)C(=O)CCC2(C)C1=CCC1C2C(=O)CC2(C)C1CCC2(O)C(=O)CO (stereo not given) in this test?
inactive

So what was the verdict on "Cc1ccc(S(=O)(=O)NC2CCCCCC2)cc1" in this test?
inactive

So what was the verdict on "CCC(=O)Nc1ccc2nn(-c3ccc(F)cc3)nc2c1" in this test?
inactive

So what was the verdict on "O=C(Cn1cc(C(F)(F)F)ccc1=O)Nc1ccc2c(c1)OCCO2" in this test?
inactive

So what was the verdict on "Cc1nnc(NC(=O)/C=C/c2ccco2)s1" in this test?
inactive

So what was the verdict on "Cc1ccc(S(=O)(=O)C2(S(=O)(=O)c3ccc(C)cc3)CCCC2)cc1" in this test?
active

So what was the verdict on COC(=O)CCCCCN1C(=O)NC(c2ccc(-c3ccccc3)cc2)C(C(=O)OCc2ccccc2)=C1C (stereo not given) in this test?
active

So what was the verdict on "COc1cc(C(=O)OCc2cc(=O)n3ccsc3n2)ccc1OC(C)C" in this test?
inactive

So what was the verdict on CC1=C(C(=O)OCc2ccccc2)C(c2ccc(C(F)(F)F)cc2)NC(=O)N1CCCCCC(=O)O (stereo not given) in this test?
inactive

So what was the verdict on "Cc1ccc(-n2nc3ccc(NC(=O)/C=C/c4ccco4)cc3n2)cc1C" in this test?
active
